measured-target: recombinant SUMO2 (UniProt P61956 1-95)
Sequence (P61956 whole entry): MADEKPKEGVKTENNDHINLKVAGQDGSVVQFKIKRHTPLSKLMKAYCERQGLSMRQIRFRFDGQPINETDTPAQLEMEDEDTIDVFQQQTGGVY
protocol-summary: ITC
pKd: −log10 of the molar value.
assay-endpoint: pKd

Input line: Identify the reported pKd for the following entry. recombinant HERC2 ZZ domain (amino acids 2702–2755), WT (domain or fragment) IHPGVTCDGCQMFPINGSRFKCRNCDDFDFCETCFKTKKHNTRHTFGRINEPGQ
Output line: ~4.22

Values from paper PMC3328386
